ASSAY TARGET: UniProtKB P62937
Sequence (P62937 whole entry): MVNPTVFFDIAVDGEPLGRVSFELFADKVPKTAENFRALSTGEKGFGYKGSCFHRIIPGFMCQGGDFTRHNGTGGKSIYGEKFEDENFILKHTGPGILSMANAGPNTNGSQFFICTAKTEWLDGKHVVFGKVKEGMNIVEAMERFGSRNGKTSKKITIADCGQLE
PROTOCOL NOTES: Binding affinity to human cyclophilin A by intrinsic tryptophan fluorescence titration assay
CONDITION INFO: read-out: Kd
METRIC NAME: Kd (µM)
The figure you give is taken to be in µM; do not add the unit.

O=C1OCc2ccc(NC(=S)Nc3cccc(Br)c3)cc21 ... 125

# input Fill in reported Kd for this entry: COc1ccc(NC(=S)Nc2ccc(S(=O)(=O)Nc3cc(C)on3)cc2)cc1
# output 101

---

ASSAY TARGET: Structural capsid protein (Human immunodeficiency virus 1) (UniProt Q76129)
Sequence (Q76129 as listed by the source): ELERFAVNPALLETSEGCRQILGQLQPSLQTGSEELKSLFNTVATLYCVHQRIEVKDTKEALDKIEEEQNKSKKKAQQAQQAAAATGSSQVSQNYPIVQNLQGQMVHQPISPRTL
PROTOCOL NOTES: Binding affinity to HIV1 capsid assessed as assembly rate per minute by ultraviolet spectrophotometry assay
Activity (milli optical density/minute) under 60 gets TRUE, anything at or over 60 gets FALSE.

Would you please look over these solved cases?
Cc1cccc(NC(=S)Nc2ccc3c(c2)C(=O)OC3)c1 ... FALSE
O=C1OCc2ccc(NC(=S)Nc3cccc(Cl)c3)cc21 ... TRUE
Cc1cc(NS(=O)(=O)c2ccc(NC(=S)Nc3cccc(Cl)c3)cc2)no1 ... TRUE

# input Criterion: Activity (milli optical density/minute) strictly below 60. Is it met by Cc1cc(NS(=O)(=O)c2ccc(NC(=S)Nc3ccccc3C)cc2)no1 ?
# output FALSE

# input Determine whether this compound shows Activity (milli optical density/minute) lower than 60 (ties excluded): COc1ccc(NC(=S)Nc2ccc(S(=O)(=O)Nc3cc(C)on3)cc2)cc1
# output TRUE

# input Find out if reported Activity (milli optical density/minute) for Cc1ccccc1NC(=S)Nc1ccc2c(c1)C(=O)OC2 is less than 60
# output FALSE

# input Please indicate whether the reported Activity (milli optical density/minute) of COc1ccc(NS(=O)(=O)c2ccc(NC(=S)Nc3ccc(Cl)cc3)cc2)cc1 is strictly below 60.
# output TRUE

# input Please state whether Activity (milli optical density/minute) is below 60 for O=C1OCc2ccc(NC(=S)Nc3cc(F)cc(F)c3)cc21
# output FALSE

# input Threshold test, Activity (milli optical density/minute) < 60: Cc1cc(NS(=O)(=O)c2ccc(NC(=S)Nc3ccc(F)cc3)cc2)no1
# output FALSE

# input Confirm or reject: Activity (milli optical density/minute) of O=C1OCc2ccc(NC(=S)Nc3ccc(F)cc3)cc21 lies strictly below 60
# output TRUE

# input Regarding Cc1cc(NS(=O)(=O)c2ccc(NC(=S)Nc3ccc(Cl)cc3)cc2)no1 , kindly confirm whether its Activity (milli optical density/minute) is beneath 60.
# output TRUE

# input In the record for CCN(CC)c1nc(C)c([N+](=O)[O-])c(NCCNC(=S)Nc2cccc(Br)c2)n1 , is Activity (milli optical density/minute) less than 60?
# output FALSE

# input Could you please tell me whether Activity (milli optical density/minute) recorded for O=C1OCc2ccc(NC(=S)Nc3cccc(F)c3)cc21 is less than 60?
# output FALSE

---

# CC50 annotations
PROTOCOL NOTES: Cytotoxicity against human CEM cells
Assay type: cell-based
CONDITION INFO: CEM cells (CCRF-CEM), read-out: TC50 (the source's name)
Entry rule: numbers only, all in µM.

Cc1cc(NS(=O)(=O)c2ccc(NC(=S)Nc3cccc(F)c3)cc2)no1 ... 88
Cc1ccc(NC(=S)Nc2ccc(S(=O)(=O)Nc3nccs3)cc2)cc1 ... 20.9
Cc1cc(NS(=O)(=O)c2ccc(NC(=S)Nc3ccc(C)c(Cl)c3)cc2)no1 ... 74.4
COc1ccc(NS(=O)(=O)c2ccc(NC(=S)Nc3ccc(Cl)cc3)cc2)cc1 ... 77.5

Could you now look at the following molecule, please?
# input Give recorded CC50. Cc1cc(NS(=O)(=O)c2ccc(NC(=S)Nc3ccc(Cl)cc3)cc2)no1
# output 37.8
